# assayed.system: CYP2D6 (Homo sapiens, UniProt P10635)
# Construct: purchased GenTest (Woburn, Mass., USA)
# Sequence (P10635 whole entry): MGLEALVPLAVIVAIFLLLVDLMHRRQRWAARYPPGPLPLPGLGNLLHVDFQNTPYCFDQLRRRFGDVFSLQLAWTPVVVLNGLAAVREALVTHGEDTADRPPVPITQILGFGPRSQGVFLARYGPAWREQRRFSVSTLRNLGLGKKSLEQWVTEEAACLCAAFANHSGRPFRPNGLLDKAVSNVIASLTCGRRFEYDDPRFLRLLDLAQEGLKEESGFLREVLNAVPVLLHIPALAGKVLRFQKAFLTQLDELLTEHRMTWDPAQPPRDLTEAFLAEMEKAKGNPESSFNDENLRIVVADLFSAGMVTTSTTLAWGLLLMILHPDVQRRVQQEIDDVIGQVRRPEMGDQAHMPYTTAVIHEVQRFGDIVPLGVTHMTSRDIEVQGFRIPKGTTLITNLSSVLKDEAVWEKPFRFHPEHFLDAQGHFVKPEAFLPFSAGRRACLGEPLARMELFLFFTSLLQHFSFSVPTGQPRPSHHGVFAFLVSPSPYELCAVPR
# assay.summary: Metabolic stability in CYP2D6 SUPERSOMES
# Assay type: in vitro ADME
# protocol.conditions: recombinant CYP2D6 SUPERSOMES, 50 pmol/mL CYP2D6 SUPERSOMES, 1 μM test compound, 2 mM NADPH, pH 7.4, 37° C., 0-30 min, read-out: t1/2 ± SD, calculated half-life in SUPERSOMES
Counter-ions that a name gives are not always drawn.
reported.metric: half-life at 1 μM (min)
One number for each entry, in min.

// worked examples, half-life at 1 μM included
Requested read-out half-life at 1 μM, target or system CYP2D6 (Homo sapiens, UniProt P10635), entry [2H]C([2H])([2H])N1CC[C@@]23CCCC[C@@H]2[C@@H]1Cc1ccc(OC([2H])([2H])C([2H])([2H])[2H])cc13 [Compound 100, hydrochloride]
51.3

Lookup COc1ccc2c(c1)[C@]13CCCC[C@@H]1[C@H](C2)N(C)CC3 [Dextromethorphan, reference compound]
1.7

// input: 2 compounds below; output: half-life at 1 μM for each
1. [2H]C([2H])([2H])C([2H])([2H])Oc1ccc2c(c1)[C@]13CCCC[C@@H]1[C@H](C2)N(C)CC3 [Compound 104, hydrochloride]
2. CCOc1ccc2c(c1)[C@@]13CCCC[C@H]1[C@@H](C2)N(C)CC3 [Dextroethorphan, (+)-3-ethoxy-17-methylmorphinan, reference compound]

49.1
10.3
